Recorded selectivity ratio values for a group of compounds are listed next.
- assay method text: Selectivity index, ratio of IC50 for cytotoxicity against human HL7702 cells to IC50 for antiproliferative activity against human HepG2 cells
- Assay type: toxicity, cell-based
- assay context: HL7702 cells versus HepG2 cells, read-out: Ratio IC50

{"compound": "CC1(C)CCC[C@]2(C)C3=C(COC3=O)C[C@H](OC(=O)/C=C/c3ccc(O)cc3)[C@@H]12", "selectivity ratio": "> 6.9"}
{"compound": "CC(=O)Oc1ccc(/C=C/C(=O)O[C@H]2CC3=C(C(=O)OC3)[C@@]3(C)CCCC(C)(C)[C@H]23)cc1", "selectivity ratio": "> 11.4"}
{"compound": "CC1(C)CCC[C@]2(C)C3=C(COC3=O)C[C@H](OC(=O)/C=C/c3ccccc3F)[C@@H]12", "selectivity ratio": "> 4.5"}
{"compound": "COc1cc([C@@H]2c3cc4c(cc3[C@@H](O[C@@H]3O[C@@H]5CO[C@@H](C)O[C@H]5[C@H](O)[C@H]3O)[C@H]3COC(=O)[C@H]23)OCO4)cc(OC)c1O [ETOPOSIDE]", "selectivity ratio": 8.4}

----------
- System: Candida albicans
- assay method text: Antifungal activity against Candida albicans assessed as inhibition of fungal growth
- Type: functional, organism-based
Activity calls are given as the source filed them. The rule behind the calls is not given here.

{"compound structure string": "CC1(C)CCC[C@]2(C)C3=C(COC3=O)C[C@H](O)[C@@H]12", "Activity": "inactive"}
{"compound structure string": "CC1(C)CCC[C@]2(C)C3=C(COC3=O)C[C@H](OC(=O)/C=C/c3ccc(O)cc3)[C@@H]12", "Activity": "inactive"}
{"compound structure string": "CC1(C)CCC[C@]2(C)C3=C(COC3=O)C[C@H](OC(=O)/C=C/c3ccc(C(F)(F)F)cc3)[C@@H]12", "Activity": "inactive"}
{"compound structure string": "CC1(C)CCC[C@]2(C)C3=C(COC3=O)C[C@H](OC(=O)/C=C/c3ccccc3)[C@@H]12", "Activity": "inactive"}
{"compound structure string": "CC1(C)CCC[C@]2(C)C3=C(COC3=O)C[C@H](OC(=O)/C=C/c3ccccc3F)[C@@H]12", "Activity": "inactive"}
{"compound structure string": "CC1(C)CCC[C@]2(C)C3=C(COC3=O)C[C@H](OC(=O)/C=C/c3ccc(Cl)cc3)[C@@H]12", "Activity": "inactive"}
{"compound structure string": "CC(=O)Oc1ccc(/C=C/C(=O)O[C@H]2CC3=C(C(=O)OC3)[C@@]3(C)CCCC(C)(C)[C@H]23)cc1", "Activity": "inactive"}

----------
Recorded IC50 at 48 h values for a group of molecules are listed next.
- assay method text: Cytotoxicity against human HL7702 cells assessed as reduction in cell viability measured after 48 hrs by CCK8 assay
- Assay type: toxicity, cell-based
- assay context: HL7702 (L02) cells

{"molecule": "CC1(C)CCC[C@]2(C)C3=C(COC3=O)C[C@H](OC(=O)/C=C/c3ccc(O)cc3)[C@@H]12", "IC50 at 48 h": "> 100 µM"}
{"molecule": "CC(=O)Oc1ccc(/C=C/C(=O)O[C@H]2CC3=C(C(=O)OC3)[C@@]3(C)CCCC(C)(C)[C@H]23)cc1", "IC50 at 48 h": "> 100 µM"}
{"molecule": "COc1cc([C@@H]2c3cc4c(cc3[C@@H](O[C@@H]3O[C@@H]5CO[C@@H](C)O[C@H]5[C@H](O)[C@H]3O)[C@H]3COC(=O)[C@H]23)OCO4)cc(OC)c1O [ETOPOSIDE]", "IC50 at 48 h": "49.6 µM"}
{"molecule": "CC1(C)CCC[C@]2(C)C3=C(COC3=O)C[C@H](OC(=O)/C=C/c3ccccc3F)[C@@H]12", "IC50 at 48 h": "> 100 µM"}
